Target: GST fusion PDZ mutant protein (R46E:K48D) (mammalian (so in the source)) (UniProt P57105)
Assay: indirect ELISA, PDZ R46E:K48D coated
Hi, to clarify the labels: Yes covers Mutant ELISA affinity (LogIC50 (oD450nm)) from 0.007 upward, No covers anything below 0.007.

{"columns": ["Binder", "Label"],
 "data": [
  ["P5 (VHH) VHH: DVQLVESGGGLVQAGDSLRLSCAASGITFRWYTMAWFRQAPGKERDFVATINWSGSDTNYADSVKGRFTISRDNAKNTVTLQMNSLQPEDTAVYYCAGVPGTSLSGETDPRDYDYWGQGTQVTVSE", "No"],
  ["P9 (VHH) VHH: DVQLVESGGGLVQAGGSLRLSCVASVASGRTFGWYDMGWFRQAPGKEREFVAAISWSGGSTYYADSVKGRSTISRDNAKNTVYLQMNSLKPEDTAVYYCAARGGGTSVDSDYDVGEFEYDYWGQGTQVTVSE", "Yes"],
  ["P2 (VHH) VHH: DVQLVESGGGLVQAGGSLRLSCAASGHTFSSYTMGWFHQAPGKEREFVAEISGTGGNTGYADSVKGRFTISRDNAKNTVYLQMNSLKPEDTAVYYCAAVIGSPTDSSDYRSSLDYDYWGQGTQVTVSE", "Yes"],
  ["NbPDZ P10 (VHH) VHH: DVQLVESGGGLVQAGGSLRLSCTASGRTFSTYTMAWFRQAPGKEREFVAAITWSGTYYADSVKGRFTISRDNAKNTMYLQMNSLKPEDTAVYICAAVIGSTVDSYSPSDPLEYDYWGQGTQVTVSE", "Yes"],
  ["P3 (VHH) VHH: DVQLVESGGGLVQAGGSLRLSCAASGRTFSSYTMGWFHQAPGKEREFVAEIGGTGGNTGYADSVKGRFTISRDNAKNTVYLQMNSLKPEDTAVYYCAAVIGSPTDSSDYRSSLDYDYWGQGTQVTVSE", "Yes"],
  ["P14 (VHH) VHH: QVQLVESGGGLVQAGDSLRLSCTASGRTFSTYTMAWFRQAPGKEREFVAAISWSGTYYADSVKGRFTISRDNAKNTVYLQMNSLKPEDTAVYYCAAVIGSTVDTYSPSDPLEYDYWGQGTQVTVSS", "Yes"],
  ["P11 (VHH) VHH: DVQLVESGGGLVQAGGSLRLSCVASGRTFSTYTMGWFRQAPGKEREFVAHIGWSGSSTYYADSVKGRFTISRDNAKNTMYLQMNSLKPEDTAVYYCAVAIGSPVDSYRHSDPLEYDYWGQGTQVTVSE", "No"]
]}
